# TEST_SYSTEM: EPHB2 (UniProt P29323)
# Sequence (P29323 whole entry, looked up): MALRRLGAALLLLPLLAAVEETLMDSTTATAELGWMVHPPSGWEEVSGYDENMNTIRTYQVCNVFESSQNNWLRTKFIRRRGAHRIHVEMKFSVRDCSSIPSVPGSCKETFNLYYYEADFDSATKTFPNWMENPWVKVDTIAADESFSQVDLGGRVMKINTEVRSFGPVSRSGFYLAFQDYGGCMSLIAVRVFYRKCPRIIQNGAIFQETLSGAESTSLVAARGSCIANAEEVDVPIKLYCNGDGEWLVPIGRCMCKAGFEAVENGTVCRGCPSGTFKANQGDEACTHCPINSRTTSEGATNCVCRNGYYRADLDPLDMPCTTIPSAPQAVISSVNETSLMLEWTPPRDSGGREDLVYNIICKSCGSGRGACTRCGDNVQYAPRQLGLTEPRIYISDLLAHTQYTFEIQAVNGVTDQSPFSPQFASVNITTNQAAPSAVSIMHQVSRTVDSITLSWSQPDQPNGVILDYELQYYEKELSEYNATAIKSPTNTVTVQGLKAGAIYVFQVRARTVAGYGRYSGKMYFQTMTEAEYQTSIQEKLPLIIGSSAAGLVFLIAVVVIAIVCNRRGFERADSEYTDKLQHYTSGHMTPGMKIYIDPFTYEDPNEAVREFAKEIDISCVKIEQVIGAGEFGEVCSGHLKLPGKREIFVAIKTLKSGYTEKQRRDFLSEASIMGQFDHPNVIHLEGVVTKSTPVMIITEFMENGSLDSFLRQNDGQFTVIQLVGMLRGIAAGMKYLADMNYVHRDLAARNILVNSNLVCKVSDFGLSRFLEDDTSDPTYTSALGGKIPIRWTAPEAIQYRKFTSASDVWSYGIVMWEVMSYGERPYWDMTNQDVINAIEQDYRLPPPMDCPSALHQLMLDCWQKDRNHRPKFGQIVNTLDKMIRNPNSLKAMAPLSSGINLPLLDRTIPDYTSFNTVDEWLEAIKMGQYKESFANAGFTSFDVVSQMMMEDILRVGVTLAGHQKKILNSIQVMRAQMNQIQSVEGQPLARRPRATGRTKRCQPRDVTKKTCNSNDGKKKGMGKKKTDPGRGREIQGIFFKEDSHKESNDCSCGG
# ASSAY_NAME: phosphorylation enrichment, bacterial display (enrichment ratio); higher = better substrate or ligand; peptides without Tyr show the background;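 further: 11-residue human phosphosite peptides and single-mutation variants displayed on the E. coli surface, counted by deep sequencing, each peptide's frequency after selection divided by its frequency in the unselected input library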;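 further: frequency after pTyr selection over input frequency; kinase dosed for 20-30% of maximal phosphorylation in three min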
READOUT: phosphorylation enrichment
Answer with a number only.

Please fill in: phosphorylation enrichment reported for GTGTAYLCGVK [ALPL_Y117_A114G] = 0.412

Please fill in: phosphorylation enrichment reported for KCCCIYEKPRA [PPP1R11_Y64] = 1.06

Please fill in: phosphorylation enrichment reported for TKEPKYEGAGS [KIAA1210_Y1615] = 0.337

Please fill in: phosphorylation enrichment reported for EFFDGYWGFSV [ITGA2B_Y265_YF] = 0.58

Please fill in: phosphorylation enrichment reported for PRSRSYFSTSI [REPS2_Y462_S463F] = 0.797

Please fill in: phosphorylation enrichment reported for TGVWDYIHVVD [GALE_Y241_R239W] = 0.588

Please fill in: phosphorylation enrichment reported for EVKAQNEDIAQ [KRT1_Y358_Y358N] = 0.549

Please fill in: phosphorylation enrichment reported for LGGSPYPRVPV [FGFR1_Y701_G703R] = 0.426

Source of measurements: the supplement of paper PMC10065799
